target: bovine factor Xa (Bos taurus, UniProt P00743); construct: bovine factor Xa, Chromogenix, 2 nkat/mL; purchased Chromogenix; experiment: Protease inhibitory assay, chromogenic substrate S-2222; format: biochemical; settings: FactorXa Ki determination; substrate 100 µM; cmpd conc 200 µM
Sequence (P00743 234-492 limits assumed): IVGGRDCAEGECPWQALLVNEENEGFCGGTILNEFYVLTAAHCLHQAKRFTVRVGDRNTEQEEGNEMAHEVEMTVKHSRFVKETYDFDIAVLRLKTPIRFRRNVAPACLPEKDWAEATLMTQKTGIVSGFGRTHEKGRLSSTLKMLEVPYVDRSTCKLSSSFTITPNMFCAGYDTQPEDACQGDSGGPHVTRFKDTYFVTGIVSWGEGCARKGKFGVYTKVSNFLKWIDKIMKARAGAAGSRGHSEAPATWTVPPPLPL
Sequence (P00743 41-180 partner limits assumed): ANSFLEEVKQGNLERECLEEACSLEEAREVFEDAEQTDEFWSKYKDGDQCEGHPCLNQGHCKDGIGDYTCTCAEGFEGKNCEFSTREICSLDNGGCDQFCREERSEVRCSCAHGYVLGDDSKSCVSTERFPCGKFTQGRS
measured.metric: vinit, avrg.
Lab note: record the figure alone, no unit after it.

Sample answers from the record:
{"compound": "CC(=O)c1sc(-c2ccc(O)cc2)nc1C [SX-E1]", "experimental.target": "bovine factor Xa (Bos taurus, UniProt P00743)", "vinit, avrg.": 14.048}
{"compound": "Oc1ccccc1N1CCCCC1 [SX-A12]", "experimental.target": "bovine factor Xa (Bos taurus, UniProt P00743)", "vinit, avrg.": 13.477}
{"compound": "O=C(c1ccccc1F)N1CCNCC1 [SX-E12]", "experimental.target": "bovine factor Xa (Bos taurus, UniProt P00743)", "vinit, avrg.": 12.944}
{"compound": "O=C1NC(=O)/C(=C\\c2cccs2)N1 [SX-H12]", "experimental.target": "bovine factor Xa (Bos taurus, UniProt P00743)", "vinit, avrg.": 13.665}
{"compound": "Cn1c(N)nc2ccccc21 [SX-A6]", "experimental.target": "bovine factor Xa (Bos taurus, UniProt P00743)", "vinit, avrg.": 10.970}

If you can, please state the reported vinit, avrg. value of COc1ccccc1CC1CCNCC1.Cl [SX-B12] . 12.727

If you can, please state the reported vinit, avrg. value of c1ccc(Nc2nncs2)cc1 [SX-D8] . 14.126

If you can, please state the reported vinit, avrg. value of Cc1cc2ccccc2nc1N [SX-A1] . 8.852
